target: HLA-A*0301 (Homo sapiens, UniProt P04439); construct: Soluble MHC was dissolved in PBS containing 0.5 mg/ml bovine γ-globulin; made in house; type: binding
ASSAY ENDPOINT: FP binding score, percentage inhibition of tracer peptide binding, 24h (%)
# number only, unit % dropped from output

> print(dat)
                 substance  readout.value
1  I[AHA][CHA]GSVAHK [I89]             91
2  I[AHA][NLE]GSVAHK [I58]             89

stdin: Need FP binding score, percentage inhibition of tracer peptide binding, 24h of S[NVA]SFGGFHK [S56] , thanks.
stdout: 91
